// reported nuclei count for each item listed
Test Method Notes: reduction of polyQ htt aggregates in cells – imaging, exon1htt(103Q)mCFP cells, high-content imaging, primary screen (AID 483);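 further: compound exposure lasted 3 days before fixation; percent of the per-plate median nuclei count of sample wells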
Assay Setup: exon1htt(103Q)mCFP cell line, aggregate imaging, at 2 µM; measured here: cell count, toxicity
Your answer should be a plain number; it is taken to be in %.

Field: example entries. Status: answers known.
Cc1ccccc1CN1CCN(CC(=O)NCc2ccco2)C1=O = 97.3
COc1ccc(Cn2nnnc2C(c2ccncc2)N2CCOCC2)cc1 (stereo unspecified) = 90.8
CC1=CC=CC2=NC(=O)CC(C)(C(=O)N(CC(=O)NC(C)C)C3CCCC3)N12 (stereo unspecified) = 107
CC(C)c1ccc(S(=O)(=O)N2CCN(C(=O)c3cccc(F)c3)CC2)cc1 = 100
CSc1cccc(NC(=O)C2CCN(S(C)(=O)=O)CC2)c1 = 80.7

Field: next compound
Reported nuclei count for `Cc1cc(NC(=O)c2ccccc2Oc2ccccc2)no1` : what is it?
102

====

// reported nuclei count for each item listed
Test Method Notes: endothelial E-selectin expression blockers – imaging, HUVEC, immunofluorescence, MLSMR starter and 10KST1 sets, primary screen (AID 487);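 further: 100% = median nuclei count of all wells on the same plate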
Assay Setup: HUVEC TNFalpha-induced E-selectin immunofluorescence imaging, at 2 µM; measured here: cell number, toxicity
Your answer should be a plain number; it is taken to be in %.

Field: example entries. Status: answers known.
CCOCCCNCC(=O)N1CCN(S(=O)(=O)c2ccc(C)cc2)CC1 = 131
CCn1c(CSc2ncccn2)nnc1SCC(=O)N1c2ccccc2CC1C (stereo unspecified) = 95.8
Cc1ccccc1Cn1nc(C)c(NC(=O)c2noc3c2CCCC3)c1C = 120
COC(=O)C(C)Oc1ccc2c3c(c(=O)oc2c1)CCCCC3 (stereo unspecified) = 103
CCn1cc(C(=O)O)c(=O)c2ccc(C)nc21 = 111

Reported nuclei count for CC1CC(=O)C2=C(C1)OC(N)=C(C#N)C2c1coc2ccccc2c1=O (stereo unspecified) : what is it?
82.2

Reported nuclei count for `COc1ccc(CNC(=O)COC(=O)c2n[nH]c3ccccc23)cc1OC` : what is it?
171

Reported nuclei count for `COc1ccc(-c2noc(CN3C(=O)c4ccccc4C3=O)n2)cc1` : what is it?
108

====

Test Method Notes: blockers of RIG-like receptor reporter activation – cell-based, Sendai virus stimulus, luciferase, 10K MLSCN set, TLR/RLR signaling modifier project, primary screen (AID 602276);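 further: firefly luciferase from ISG56 promoter only with Renilla not read in this screen; 0% = Sendai virus plus DMSO and 100% = medium plus DMSO without virus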
Assay Setup: HEK293 RL24 IRF3 luciferase reporter, at 10 µM, stronger effect = higher value
Property: inhibition (%)
Your answer should be a plain number; it is taken to be in %.

CC(C)NCC(O)COc1ccc(CC(N)=O)cc1 (stereo unspecified) = -12.5
Cc1cc(C)n(-c2nc(C)nc3c2cnn3-c2ccccc2)n1 = 20.1

Reported inhibition for Cn1c(=O)c2c(ncn2CC(O)CO)n(C)c1=O (stereo unspecified) : what is it?
12.6

Reported inhibition for CCOC(=O)c1sc(N2C(=O)C(O)=C(C(=O)c3ccco3)C2c2ccccc2)nc1C (stereo unspecified) : what is it?
6.84

Reported inhibition for CN1C(=O)C2(NCCc3c2[nH]c2ccccc32)c2ccccc21 (stereo unspecified) : what is it?
20

Reported inhibition for CCCC(=O)N=C1SC2CS(=O)(=O)CC2N1c1ccc(CC)cc1 (stereo unspecified) : what is it?
15.3

Reported inhibition for `CCSc1nc2c(c(=O)n(C)c(=O)n2C)n1Cc1ccc(Cl)cc1` : what is it?
11.8

Reported inhibition for `CC(C)c1ccc(-c2nc(N3CCCCC3)[nH]c(=O)c2C#N)cc1` : what is it?
-5

Reported inhibition for `Cc1cc(NC(=O)c2ccc3nc(-c4ccccc4)c(-c4ccccc4)nc3c2)no1` : what is it?
-16

Reported inhibition for `CCN(CC)CCNC(=O)c1ccc(N)cc1` : what is it?
-2.32

Reported inhibition for `c1ccc2[nH]c(CSc3nnc(-c4ccncc4)o3)nc2c1` : what is it?
7.74
